Assay: Solubility study
Assay type: physicochemical
Conditions: water; read-out: Solubility Water
Where no end group is shown, it is not given here.
RESULT TYPE: solubility (µg/mL)
I only need the number, in µg/mL, no unit after it.

Problem: Report solubility for YQKLSYLDFQYQKD [G7K13]
Solution: 360

Problem: Report solubility for YQKLSYLDFQYQKDK [G7K15]
Solution: 180

Problem: Report solubility for YKKLSYLDFQYQLD [G7K2]
Solution: 780

Problem: Report solubility for YQKLSYLDFQKQLD [G7K11]
Solution: 130

---

Assay: Solubility study
Assay type: physicochemical
Conditions: PBS; read-out: Solubility PBS
Where no end group is shown, it is not given here.
RESULT TYPE: solubility (µg/mL)
I only need the number, in µg/mL, no unit after it.

Problem: Report solubility for YQKLSYLDFQYQKDK [G7K15]
Solution: 80

Problem: Report solubility for YQKLSYLDFQKQLD [G7K11]
Solution: 30

Problem: Report solubility for YQKLSYLDFQYQKD [G7K13]
Solution: 80

Problem: Report solubility for YKKLSYLDFQYQLD [G7K2]
Solution: 240
